Values were extracted from PubChem BioAssay AID434987.

Each entry below carries its recorded IC50.
Test system: M. tuberculosis H37Rv growth inhibition with meropenem
ASSAY: dose response, H37Rv, with and without meropenem (AID 434987);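 further: growth over 7 days at 37 °C before Alamar Blue read on day 9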
CONDITION DETAILS: M. tuberculosis H37Rv growth inhibition; measured here: IC50 without meropenem

MOLECULE	IC50
O=c1[nH]c(C2CCN(S(=O)(=O)c3ccc(S(=O)(=O)NC4CC4)cc3)CC2)nc2c1nnn2Cc1ccc(F)cc1	> 100 µM
O=C(Cn1nnc2c(cnn2-c2ccccc2)c1=O)N1CCN(c2ccccc2F)CC1	> 100 µM
COc1ccc(-c2nn(-c3ccccc3)cc2C(=O)Nc2nccs2)cc1OC	> 100 µM
Cc1ccc(Cn2c(C(CO)Nc3nc(-c4ccc(Cl)c([N+](=O)[O-])c4)cs3)nc3ccccc32)cc1 (stereo not given)	> 100 µM
CCC(C)Nc1c2c(nc3c(-c4ccccc4)c(C)nn13)CCC2 (stereo not given)	> 100 µM
CCC(C(=O)Nc1ccccc1N1CCCC1)c1ccccc1 (stereo not given)	> 100 µM
Cc1nnc(SCc2ccc(C(=O)Nc3cc(Cl)ccc3C)cc2)s1	> 100 µM
O=C1CC(Nc2ccc(N3CCOCC3)cc2)C(=O)N1C1CCCCC1 (stereo not given)	> 100 µM
Cc1nn(Cc2ccc(Cl)cc2)c(C)c1NC(=O)CSc1nc2c(c(C(F)(F)F)n1)CCc1ccccc1-2	> 100 µM
CCOc1ccc(-c2nnc(-c3cccs3)o2)cc1OCC	> 100 µM
O=C(CSc1nnc(SCc2ccccc2)s1)N/N=C/c1ccc(Cl)cc1Cl	> 100 µM
COC(=O)c1c(C)n(-c2ccccc2)c2ccc(O)cc12	> 100 µM
Cc1cc(C)cc(NC(=O)c2cc(Cl)sc2Cl)c1	> 100 µM
O=C(CC(=O)c1ccccc1)Nc1ccc2c(c1)OCCO2	78.9 µM
O=C(CSc1n[nH]c(=O)n1C1CC1)c1ccc2c(c1)OCCO2	46.3 µM
Cc1oc(C(C)(C)C)cc1C(=O)Nc1ccc2c(c1)OCCO2	> 100 µM
O=C(N/N=C/c1c(Cl)cccc1Cl)c1cccc(F)c1	> 100 µM
Cc1nnnn1/C(=C\c1ccccc1)C(=O)OCC(=O)Nc1ccc(Cl)cc1F	26.7 µM
COCCNC(=O)c1ccc(NC(=O)C2(c3ccccc3)CCCC2)cc1	33.4 µM
CC1CN(C2CCCCC2)c2nc3c(c(=O)[nH]c(=O)n3C)n2C1 (stereo not given)	> 100 µM
Cc1cccnc1NC(=S)NC(=O)c1cncc(Br)c1	40.3 µM
Cc1cc(C)cc(NC(=S)NN)c1	78.3 µM
COc1cccc(/C=N/NC(=O)NC23CC4CC(CC(C4)C2)C3)c1O	46.9 µM
Cc1ccc(OCC(=O)Nc2ccc(-c3nc4ncccc4o3)cc2)c(C)c1	> 100 µM
O=C(/C=C/c1ccc([N+](=O)[O-])cc1)c1cccs1	22.2 µM
COc1cc(/C=C/C(=O)OCC(=O)Nc2ccc(Cl)cn2)ccc1O	> 100 µM
N#CC1=C2C=Cc3ccccc3N2CCCC1=O	93.3 µM
CCCCCNCc1cccc(Br)c1	> 100 µM
O=C(c1cc2c(s1)CCCC2)n1cccn1	> 100 µM
CCOc1ccc(N2C(=O)CC(N)C2=O)cc1 (stereo not given)	45.9 µM

* * *

Each entry below carries its recorded IC50.
Test system: M. tuberculosis H37Rv growth inhibition with meropenem
ASSAY: dose response, H37Rv, with and without meropenem (AID 434987);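 further: growth over 7 days at 37 °C before Alamar Blue read on day 9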
CONDITION DETAILS: M. tuberculosis H37Rv growth inhibition; measured here: IC50 without meropenem

MOLECULE	IC50
O=C(Nc1ccc2nc3n(c(=O)c2c1)CCCC3)c1cc([N+](=O)[O-])ccc1F	83.1 µM
CC1=NN(c2ccccc2)C(=O)C1C=Nc1ccccc1O (stereo unspecified)	> 100 µM
CC(C)NC(=O)C(=O)NNC(=O)C12CC3CC(CC(C3)C1)C2	81.8 µM
O=C(Cn1ncc2c3ccccc3n(Cc3ccccc3F)c2c1=O)NCCCN1CCCC1=O	> 100 µM
COc1ccccc1CNC(=O)c1ccc(SC)cc1OC	83.5 µM
O=C(CNC(=O)c1ccc(Br)cc1)NCC(=O)OCc1ccc(Cl)cc1	56.9 µM
CC(=O)c1c(OC(=O)c2cccc(Cl)c2)c2ccccc2n1C	68.6 µM
CCOC(=O)N1CCC(N2CCN(S(=O)(=O)c3ccc(Cl)cc3)CC2)CC1	> 100 µM
COc1ccc(/C(O)=C/C(=O)C(=O)NNC(=O)C(O)(c2ccccc2)c2ccccc2)cc1	> 100 µM
CC(C)C(=O)Nc1ccc(NC(=S)NC(=O)c2ccc([N+](=O)[O-])cc2)cc1	> 100 µM
CCCCN(CC)S(=O)(=O)c1ccc(C(=O)Nc2nnc(CSC)o2)cc1	25.2 µM
S=C(Nc1ccc(Cl)cc1)c1nc2ccccc2s1	> 100 µM
COc1ccccc1/C=N/NC(=S)Nc1cccnc1	> 100 µM
COc1ccc2nc(SCC(=O)N3CCCCCC3)c(C#N)cc2c1	> 100 µM
CC(=O)c1sc(N/N=C\c2ccc(N(C)C)cc2)nc1C	> 100 µM
Cc1ccc(NC(=O)CSc2nnc([C@@H]3CCCN3C(=O)OC(C)(C)C)o2)c(C)c1	86.5 µM
Cc1ccc(C)c(N2CCN(CC3CCCCC3)CC2)c1	95.9 µM
O=C1C=C2C=C[C@@H]3CC2(O1)[C@H]1CCCCN31	> 100 µM
c1ccc(-c2oc3ncnc(NCCN4CCOCC4)c3c2-c2ccccc2)cc1	> 100 µM
Cc1cc(NC(=O)COc2nnc(-c3ccccc3)c3ccccc23)no1	> 100 µM
CC(C(=O)Nc1cc([N+](=O)[O-])ccc1Cl)N1CCN(c2ccccc2O)CC1 (stereo unspecified)	> 100 µM
COc1ccc(-c2cc(C(F)(F)F)nc(SCC(=O)Nc3sc4c(c3C#N)CCC4)n2)cc1	> 100 µM
COc1ccccc1N(C)S(=O)(=O)c1ccc(C(=O)OCC(=O)N2CCCCCC2)cc1	> 100 µM
O=c1c(N=Nc2ccc(O)cc2)c(-c2ccccc2)[nH]n1-c1ccc([N+](=O)[O-])cc1	> 100 µM
O=C(COC(=O)c1ccc([N+](=O)[O-])s1)NCc1ccccc1	34.8 µM
CC(C)(C)[C@@H]1C=C(C(=O)Nc2ccccc2)O[C@H](OCc2ccc(CO)cc2)C1	93.1 µM

* * *

Each entry below carries its recorded IC50.
Tested on: M. tuberculosis H37Rv growth inhibition with meropenem
ASSAY: dose response, H37Rv, with and without meropenem (AID 434987);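 further: growth over 7 days at 37 °C before Alamar Blue read on day 9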
CONDITION DETAILS: M. tuberculosis H37Rv growth inhibition; measured here: IC50 without meropenem

MOLECULE	IC50
CCOc1cc(/C=N\Nc2ccc([N+](=O)[O-])cc2)ccc1OCC(=O)Nc1ccc(C)c(C)c1	> 100 µM
CCOC(=O)c1ccc(N2CN(C3CCCCC3)CNC2=S)cc1	> 100 µM
CCOC(=O)c1c(NC(=S)NC(=O)c2ccc(Cn3cc(Cl)cn3)o2)sc2c1CCC(C)C2 (configuration not stated)	> 100 µM
c1ccc2nc(-c3nc4ccccc4o3)ccc2c1	> 100 µM
O=C(OCC(=O)N1CCN(C(=O)c2ccco2)CC1)c1cc(-c2ccco2)nc2ccccc12	> 100 µM
NC(=O)Nc1ccc(C(=O)OCC(=O)Nc2ccc(Cl)cn2)cc1	> 100 µM
O=C(COc1cccc2cccnc12)N/N=C/c1ccc(O)cc1	> 100 µM
Cc1cccc2c(C(=O)n3cccn3)cc(-c3ccccc3Cl)nc12	52.7 µM
CC1CCN(CC(CS(=O)(=O)c2ccc([N+](=O)[O-])cc2)N2CCC(C)CC2)CC1 (configuration not stated)	21 µM
Cc1cccc(Cl)c1NC(=S)NN	44.5 µM
Cc1cccc(N2CCN(CC3CCCCC3)CC2)c1C	90.5 µM
Cc1ccc(C)c(S(=O)(=O)N2CCN(CC(=O)NC(C)c3ccccc3)CC2)c1 (configuration not stated)	99.7 µM
CNC(=O)COC(=O)c1ccccc1NC(=O)c1ccco1	47.1 µM
O=C(CSc1ccc([N+](=O)[O-])cn1)Nc1ccc(N2CCOCC2)cc1	17.6 µM
CC(C)CC(=O)N1CCN(c2ccc([N+](=O)[O-])c(NCc3ccccc3)c2)CC1	46.7 µM
COc1ccc(-c2cc(-c3ccc(OC)cc3)nc(-c3ccc4c(c3)NC(=O)CO4)c2)cc1	> 100 µM
CSc1nnc(C)c(/C=C/Nc2ccc(Cl)cc2)n1	94.5 µM
CC(C)CCSc1nc(N2CCOCC2)c2c(c1C#N)CC(C)(C)OC2	> 100 µM
O=C(CCCCCN1C(=O)c2cccc([N+](=O)[O-])c2C1=O)Nc1ccccc1F	> 100 µM
O=C(N/N=C/c1ccc2c(c1)OCO2)c1sc2cc(Cl)ccc2c1Cl	> 100 µM
Cn1nnnc1Sc1ncnc2scc(-c3ccccc3)c12	> 100 µM
C=CCN=c1scc(-c2ccc(F)cc2)n1/N=C/c1ccccn1	92.8 µM
O=C(CCNc1ccccc1)c1cccc([N+](=O)[O-])c1	> 100 µM
CCOC(=O)Cn1nc(-c2ccc(C)cc2)c2ccccc2c1=O	> 100 µM
CCc1sc2nc(SCC(=O)Nc3cc(C)on3)n(-c3cccc(OC)c3)c(=O)c2c1C	> 100 µM
COc1ccc(C(=O)Nc2cccc3c2CCCC3)c(OC)c1	> 100 µM
CCN(CC)C(=O)C1CCCN(c2ccc([N+](=O)[O-])cc2/C=N/NC(=O)c2cccc([N+](=O)[O-])c2)C1 (configuration not stated)	> 100 µM
Cc1ccccc1NC(=O)/C(C#N)=C\c1cc(C)n(-c2ccc(C(=O)O)cc2)c1C	46.8 µM
CN1CCN(S(=O)(=O)c2ccc(NC(=O)c3ccc(Br)s3)cc2)CC1	> 100 µM
COc1ccc2[nH]cc(C(=O)CCl)c2c1	9.54 µM
Cn1cc(C(=O)N/N=C/C(Br)=C\c2ccccc2)ccc1=O	> 100 µM
CCC(=O)Oc1oc(-c2ccccc2)nc1C=Nc1ccc(C)cc1	> 100 µM
